# STUDY_SYSTEM: T1, STAG2–RAD21 complex (wild type) (human | , UniProt Q8N3U4 1-1231; O60216 1-631)
# T1 chain 1: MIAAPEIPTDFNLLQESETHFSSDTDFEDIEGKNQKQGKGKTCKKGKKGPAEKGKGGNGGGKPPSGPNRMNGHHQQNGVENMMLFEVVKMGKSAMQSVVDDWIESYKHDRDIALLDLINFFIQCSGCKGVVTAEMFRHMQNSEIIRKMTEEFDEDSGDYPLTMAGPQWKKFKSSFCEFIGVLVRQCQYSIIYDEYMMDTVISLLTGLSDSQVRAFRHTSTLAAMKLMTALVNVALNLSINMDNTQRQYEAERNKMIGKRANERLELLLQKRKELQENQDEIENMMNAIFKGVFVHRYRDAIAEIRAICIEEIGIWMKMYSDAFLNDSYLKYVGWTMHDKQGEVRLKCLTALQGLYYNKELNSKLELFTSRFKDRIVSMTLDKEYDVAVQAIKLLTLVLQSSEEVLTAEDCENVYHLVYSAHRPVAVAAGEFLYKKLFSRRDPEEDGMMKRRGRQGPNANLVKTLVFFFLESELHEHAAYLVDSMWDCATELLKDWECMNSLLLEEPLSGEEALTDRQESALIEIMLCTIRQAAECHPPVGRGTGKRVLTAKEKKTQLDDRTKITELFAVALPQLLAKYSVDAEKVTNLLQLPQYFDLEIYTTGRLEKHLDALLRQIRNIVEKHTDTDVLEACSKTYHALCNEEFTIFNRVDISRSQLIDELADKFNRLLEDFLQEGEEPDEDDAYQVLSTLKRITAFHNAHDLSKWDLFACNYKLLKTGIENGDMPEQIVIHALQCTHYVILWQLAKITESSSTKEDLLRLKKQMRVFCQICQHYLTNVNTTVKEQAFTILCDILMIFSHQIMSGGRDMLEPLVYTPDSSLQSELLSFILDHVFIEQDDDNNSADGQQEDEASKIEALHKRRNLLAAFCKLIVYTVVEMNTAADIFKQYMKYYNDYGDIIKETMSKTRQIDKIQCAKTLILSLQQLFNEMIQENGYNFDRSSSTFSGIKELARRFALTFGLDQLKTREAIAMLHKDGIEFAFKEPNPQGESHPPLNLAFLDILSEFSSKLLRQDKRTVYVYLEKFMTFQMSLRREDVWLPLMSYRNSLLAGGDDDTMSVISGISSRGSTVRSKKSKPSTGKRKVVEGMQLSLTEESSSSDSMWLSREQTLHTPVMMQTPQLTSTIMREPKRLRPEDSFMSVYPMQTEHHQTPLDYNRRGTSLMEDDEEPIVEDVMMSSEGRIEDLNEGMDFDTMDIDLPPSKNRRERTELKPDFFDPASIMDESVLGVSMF
# T1 chain 2: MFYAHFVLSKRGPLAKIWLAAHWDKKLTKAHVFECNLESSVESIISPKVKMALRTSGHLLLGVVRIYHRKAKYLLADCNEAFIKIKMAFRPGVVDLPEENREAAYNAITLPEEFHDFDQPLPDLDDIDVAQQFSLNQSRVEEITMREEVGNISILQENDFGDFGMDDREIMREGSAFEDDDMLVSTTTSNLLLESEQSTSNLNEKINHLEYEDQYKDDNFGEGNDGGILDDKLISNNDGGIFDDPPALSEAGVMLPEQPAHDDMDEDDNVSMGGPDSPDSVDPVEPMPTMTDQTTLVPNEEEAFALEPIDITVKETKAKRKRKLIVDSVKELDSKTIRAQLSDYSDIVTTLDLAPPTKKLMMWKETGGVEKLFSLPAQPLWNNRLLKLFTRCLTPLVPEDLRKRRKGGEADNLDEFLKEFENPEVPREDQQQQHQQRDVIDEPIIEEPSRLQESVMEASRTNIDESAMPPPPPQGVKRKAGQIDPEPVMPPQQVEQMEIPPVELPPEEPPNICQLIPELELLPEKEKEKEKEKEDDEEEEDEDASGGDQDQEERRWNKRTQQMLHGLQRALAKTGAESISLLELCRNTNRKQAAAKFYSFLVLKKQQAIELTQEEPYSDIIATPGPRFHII
# EXPERIMENT_NOTES: ITC

{"columns": ["BINDER", "Kd [µM]"],
 "data": [
  ["DVSVYDFEEE [CTCF peptide]", 1.92]
]}

// provenance: paper PMC11319201
